- System: NCI-H23 lung
- METHOD NOTES: NCI tumour cell line growth inhibition, 48 h

- MOLECULE: "C=C(CNCc1ccccc1)c1ccc(C(=O)Nc2ccccc2N)cc1"
  GI50: "2370 nM"
- MOLECULE: "COc1ccc(C(C)=O)cc1N1C(=O)C2C(C1=O)C1(c3ccccc3)C(=O)C2(c2ccccc2)C(c2ccc(C)cc2)=C1c1ccc(C)cc1 (stereo not drawn)"
  GI50: "> 100000 nM"
- MOLECULE: "O=c1c2sc(=S)n(-c3ccc(F)cc3)c2ncn1Cc1ccc(F)cc1F"
  GI50: "> 100000 nM"
- MOLECULE: "C=C1CC[C@@H]2[C@](C)(COC(C)=O)[C@H](OC(C)=O)CC[C@@]2(C)[C@@H]1CC(Sc1ccccc1)C1=CCOC1=O (stereo partly drawn)"
  GI50: "1780 nM"
- MOLECULE: "CCOC(=O)CCCn1c(SC)nc2[nH]cc(-c3ccccc3)c2c1=O"
  GI50: "11600 nM"
- MOLECULE: "OC[C@H]1C[C@](O)(c2ccc(Cl)cc2)[C@@H](c2ccc(Cl)cc2)O1"
  GI50: "24800 nM"
- MOLECULE: "CCN(CC)c1ccc2c(c1)OC(N)=C(C#N)C2c1cc(OC)c2c(c1)OCO2 (stereo not drawn)"
  GI50: "35.9 nM"
- MOLECULE: "C=C1C(=O)O[C@@H]2C[C@@H]1CC/C(C)=C/CC/C(C)=C/CC[C@@]2(C)O"
  GI50: "4140 nM"
- MOLECULE: "Cc1cc(I)cc(CN(C)CCCN2CCCCCCC2)c1O"
  GI50: "18100 nM"
- MOLECULE: "CCN1CCN(C(c2ccc(C(F)(F)F)cc2)c2ccc3cccnc3c2O)CC1 (stereo not drawn)"
  GI50: "2350 nM"
- MOLECULE: "Cn1cc(CO)c2c1C(=O)C=C(N1CC1)C2=O"
  GI50: "< 10 nM"
- MOLECULE: "CCCCCCCCCCCCCC1=NC(C)(C)CN1C(C)C"
  GI50: "1670 nM"
- MOLECULE: "CCCCCCCCCCCCOC1C(C(COC2OC(C3COC(C)(C)O3)C3OC(C)(C)OC23)NC(=O)Nc2ccc(C(=O)O)cc2)OC2OC(C)(C)OC21 (stereo not drawn)"
  GI50: "2640 nM"

----------
Reported log10 TGI is given for each of the following compounds.
- System: SF-295 CNS
- METHOD NOTES: NCI tumour cell line growth inhibition, 48 h
ASSAY READOUT: log10 TGI (log10 of the value in µM)

- COMPOUND: "Cc1c([N+](=O)[O-])ccc2c(NCCCN(C)C)ccnc12"
  EXPERIMENTAL TARGET: "SF-295 CNS"
  log10 TGI: 1.78
- COMPOUND: "O=C1NC(=O)C(c2cnc3ccccn23)=C1c1cn2c3c(cc(F)cc13)CN(C(=O)N1CCCCC1)CC2"
  EXPERIMENTAL TARGET: "SF-295 CNS"
  log10 TGI: 1.53
- COMPOUND: "O=C1C(Cl)N(c2ccc(Cl)cc2)C1c1c[nH]c2ccccc12 (centres undefined)"
  EXPERIMENTAL TARGET: "SF-295 CNS"
  log10 TGI: 1.50
- COMPOUND: "CCCCCCCCCCCCCC1=NC(C)(C)CN1C(C)C"
  EXPERIMENTAL TARGET: "SF-295 CNS"
  log10 TGI: 0.50
- COMPOUND: "CCC[CH2][Sn]1([CH2]CCC)[O]N=C(c2ccccc2)C(c2ccccc2)[O]1 (centres undefined)"
  EXPERIMENTAL TARGET: "SF-295 CNS"
  log10 TGI: 0.53
